test system: MDA-MB-435 melanoma; assay: NCI-60 one-dose screen, 48 h; conditions: 10 µM unless noted
This is part of a sample that, as a whole, favours compounds with a hit. Of some 83,000 tested, about 20% had one in any assay. Activity calls are given as the source filed them. The calls were made as follows: active = growth percent below 10; inactive = the rest.
Outcomes: label 1 = active, label 0 = inactive

[[record]]
compound = "Cc1cc2nc(CS)[nH]c2cc1C"
discrete_label = "label 0"

[[record]]
compound = "O=C1c2ccccc2C(=O)c2sc(Nc3ccc(Cl)cc3)nc21"
discrete_label = "label 1"

[[record]]
compound = "CCCCCCCCCCCCCCCCOP(=O)([O-])OCC[N+](C)(C)C"
discrete_label = "label 0"

[[record]]
compound = "COC(=O)c1nc(=S)[nH]c(C(=O)OC)c1C(=O)c1ccc2ccccc2c1"
discrete_label = "label 0"

[[record]]
compound = "NC(=S)N/N=C/c1ccc(Cl)s1"
discrete_label = "label 0"

[[record]]
compound = "CN(C)c1ccc(C(=C2C=CC(=[N+](C)C)C=C2)c2ccc(N(C)C)cc2)cc1 (tested in a mixture with another compound)"
discrete_label = "label 1"

[[record]]
compound = "CN1c2ccccc2C(C)(C)C12C=Cc1cc(O)ccc1O2 (stereo unspecified)"
discrete_label = "label 1"

[[record]]
compound = "S=C(NCCNC(=S)[S][Sn]([c]1ccccc1)([c]1ccccc1)[c]1ccccc1)[S][Sn]([c]1ccccc1)([c]1ccccc1)[c]1ccccc1"
discrete_label = "label 1"

[[record]]
compound = "O[C@H]1[C@H]2c3cc4c(cc3CN3CCC(=C[C@@H]1O)[C@H]23)OCO4"
discrete_label = "label 0"

[[record]]
compound = "Nc1ccc(SSc2ccc(N)cc2)cc1"
discrete_label = "label 0"

[[record]]
compound = "Cc1ccc(N=C=C(c2ccccc2)c2ccccc2)cc1"
discrete_label = "label 0"

[[record]]
compound = "O=C(Nc1cccc(Br)c1)Oc1ccc(Cl)c2cccnc12"
discrete_label = "label 0"

[[record]]
compound = "Nc1nc(N)c2c(ccc3c2ccn3Cc2cccc([N+](=O)[O-])c2)n1"
discrete_label = "label 1"

[[record]]
compound = "N[C@H](C(=O)O)[C@@H]1CC(Cl)=NO1"
discrete_label = "label 0"

[[record]]
compound = "N#Cc1ccc([N+](=O)[O-])o1"
discrete_label = "label 0"

[[record]]
compound = "CCC1OC(OC)C=CC1=O (stereo unspecified)"
discrete_label = "label 0"


* * *

system: UACC-62 melanoma; test: NCI-60 one-dose screen, 48 h (100 = growth as untreated, 0 = no growth, -100 = all killed); details: 10 µM unless noted
About 83,000 compounds went through this panel and 20% of them were active in at least one assay; those are over-represented in the sample as a whole.
Below is a list of entries, each paired with its recorded growth value.
quantity kind: growth (%)

[[record]]
compound_smiles = "Cc1cc2nc(CS)[nH]c2cc1C"
u = "%"
value = 84.4

[[record]]
compound_smiles = "CC(C)c1ccc2nc3ccc(C(=O)NCCN4CCN(c5ccccc5)CC4)cn3c(=O)c2c1"
u = "%"
value = 62

[[record]]
compound_smiles = "O=C(/C=C/c1cccc(Cl)c1)c1ccccc1"
u = "%"
value = 81.5

[[record]]
compound_smiles = "NC(=S)N/N=C/c1ccc(Cl)s1"
u = "%"
value = 101

[[record]]
compound_smiles = "O=C1C=CC(=O)N1C1c2ccccc2-c2ccccc21"
u = "%"
value = 102

[[record]]
compound_smiles = "COc1ccc2nc3cc(Cl)ccc3c(NCCNc3c4ccc(Cl)cc4nc4ccc(OC)cc34)c2c1"
u = "%"
value = -88.4

[[record]]
compound_smiles = "Oc1c(Br)c(Br)c(O)c(Br)c1Br"
u = "%"
value = 93.3

[[record]]
compound_smiles = "CCC(CC)COC(=O)c1ccc(O)c(O)c1"
u = "%"
value = 76.8

[[record]]
compound_smiles = "CCCCCCCCCCCCCCCCOP(=O)([O-])OCC[N+](C)(C)C"
u = "%"
value = 37.6

[[record]]
compound_smiles = "CNc1ccc(N)cc1"
u = "%"
value = 89.3

[[record]]
compound_smiles = "S=C(NCCNC(=S)[S][Sn]([c]1ccccc1)([c]1ccccc1)[c]1ccccc1)[S][Sn]([c]1ccccc1)([c]1ccccc1)[c]1ccccc1"
u = "%"
value = -64.1


All values here come from PubChem BioAssay (NCI).
